MEASUREMENT_TARGET: HLA-DR0401 protein (Homo sapiens, UniProt P01903+P01911, A100K/A169T/F76Y/I96L/K127E/L162R/M171V/N62H/P40V/Q125Y/R42H/S133A/S149N/S66Y/V115G/V209L/W38E)
ASSAY_NOTES: Peptide competition binding assay against biotinylated HA306–318 on HLA-DR0401
pIC50: −log10 of the molar value. Square brackets hold non-standard residues; d marks the D form. Peptide text beside a SMILES is read from it. Cit = NC(=O)NCCC[C@H](N)C(=O)O
Reported pIC50 values for a set of molecules

- MOLECULE: "CC[C@H](C)[C@H](NC(=O)[C@H](CCCNC(N)=O)NC(=O)[C@@H](N)CCCCN)C(=O)N[C@@H](C)C(=O)N[C@@H](CCCCN)C(=O)N[C@@H](C)C(=O)N[C@H](C(=O)N[C@@H](CC(N)=O)C(=O)N[C@@H](CCC(=O)O)C(=O)N[C@@H](CCCCN)C(=O)N[C@@H](CO)C(=O)N[C@@H](CS)C(=O)N[C@@H](CC(N)=O)C(=O)N[C@@H](CS)C(=O)N[C@@H](CC(C)C)C(=O)O)C(C)C [Cit-α-enolase 4] (H-K[Cit]IAKAVNEKSCNCL-OH)"
  pIC50: 5.72
- MOLECULE: "CC[C@H](C)[C@H](NC(=O)[C@H](CCCNC(=N)N)NC(=O)[C@@H](N)CCCCN)C(=O)N[C@@H](C)C(=O)N[C@@H](CCCCN)C(=O)N[C@@H](C)C(=O)N[C@H](C(=O)N[C@@H](CC(N)=O)C(=O)N[C@@H](CCC(=O)O)C(=O)N[C@@H](CCCCN)C(=O)N[C@@H](CO)C(=O)N[C@@H](CS)C(=O)N[C@@H](CC(N)=O)C(=O)N[C@@H](CS)C(=O)N[C@@H](CC(C)C)C(=O)O)C(C)C [α-enolase 4] (H-KRIAKAVNEKSCNCL-OH)"
  pIC50: 5.77
- MOLECULE: "C[C@H](NC(=O)[C@H](C)NC(=O)[C@H](CCCNC(N)=O)NC(=O)[C@H](C)NC(=O)[C@@H]1CCCN1C(=O)[C@H](CCCNC(N)=O)NC(=O)[C@H](C)NC(=O)[C@H](CCCNC(=N)N)NC(=O)[C@H](Cc1ccc(O)cc1)NC(=O)CN)C(=O)N[C@@H](C)C(=O)N[C@H](C(=O)O)[C@@H](C)O [Cit-Fib 1] (H-GYRA[Cit]PA[Cit]AAAT-OH)"
  pIC50: 5.09
- MOLECULE: "CC(C)C[C@H](NC(=O)[C@H](CO)NC(=O)[C@H](CC(=O)O)NC(=O)[C@H](CC(C)C)NC(=O)[C@H](CC(N)=O)NC(=O)[C@@H](NC(=O)[C@H](CCC(=O)O)NC(=O)[C@H](CCCNC(N)=O)NC(=O)[C@H](CC(C)C)NC(=O)[C@H](CC(N)=O)NC(=O)[C@H](CC(C)C)NC(=O)[C@H](CO)NC(=O)[C@@H](N)CO)[C@@H](C)O)C(=O)O"
  pIC50: 4.85
